Data credit: patent US20100249093A1

IC50, human melanocortin-4 receptor (MC-4R) (Homo sapiens, UniProt P32245), per-entry values.
Endpoint Name: IC50

{"Entry Smiles": "CC[C@H](COc1cccnc1C1CCN(C(=O)[C@@H](Cc2ccc(Cl)cc2Cl)NC(=O)N2CC[C@@H](O)C2)CC1)N(C)C", "Endpoint Name": "IC50", "Assay Result": "≤ 100 nM"}
{"Entry Smiles": "CC[C@H](COc1cccnc1C1CCN(C(=O)[C@@H](Cc2ccc(Cl)cc2Cl)NC(=O)N2CCC[C@@H]2CO)CC1)N(C)C", "Endpoint Name": "IC50", "Assay Result": "≤ 100 nM"}
{"Entry Smiles": "CC[C@@H](CN(C)C)Oc1cccnc1C1CCN(C(=O)[C@@H](Cc2ccc(Cl)cc2Cl)NC(=O)N(C)CCOC)CC1", "Endpoint Name": "IC50", "Assay Result": "≤ 100 nM"}
{"Entry Smiles": "CC[C@H](COc1cccnc1C1CCN(C(=O)[C@@H](Cc2ccc(Cl)cc2Cl)NC(=O)N2CCOCC2)CC1)N1CCCC1", "Endpoint Name": "IC50", "Assay Result": "≤ 100 nM"}
{"Entry Smiles": "CC[C@@H](CN1CCCC1)Oc1ncccc1C1CCN(C(=O)[C@@H](Cc2ccc(Cl)cc2Cl)NC(=O)N2CCCC2)CC1", "Endpoint Name": "IC50", "Assay Result": "≤ 100 nM"}
{"Entry Smiles": "CN1CCOC[C@@H](Oc2cccnc2C2CCN(C(=O)[C@@H](Cc3ccc(Cl)cc3Cl)NC(=O)N3CCCC3)CC2)C1", "Endpoint Name": "IC50", "Assay Result": "100 to 1000 nM"}
{"Entry Smiles": "CN1CC[C@H](COc2cccnc2C2CCN(C(=O)[C@@H](Cc3ccc(Cl)cc3Cl)NC(=O)N3CCCC3)CC2)C1", "Endpoint Name": "IC50", "Assay Result": "100 to 1000 nM"}

###

pIC50, human melanocortin-4 receptor (MC-4R) (Homo sapiens, UniProt P32245), per-entry values.
pIC50: −log10 of the molar value.
Endpoint Name: pIC50

{"Compound": "O=C(N[C@H](Cc1ccc(Cl)cc1Cl)C(=O)N1CCC(c2cccnc2O[C@H]2CN3CCC2CC3)CC1)N1CCCC1 [Example 10]", "Assay Result": "6.00 to 7.00"}
{"Compound": "CC[C@H](COc1cccnc1C1CCN(C(=O)[C@@H](Cc2ccc(Cl)cc2Cl)NC(=O)N2CC[C@H](OC(C)=O)C2)CC1)N(C)C [Example 117]", "Assay Result": "≥ 7.00"}
{"Compound": "CC[C@H](COc1cccnc1C1CCN(C(=O)[C@@H](Cc2ccc(Cl)cc2Cl)NC(=O)N(C)CC(C)(C)O)CC1)N(C)C [Example 111]", "Assay Result": "≥ 7.00"}
{"Compound": "CN1CCC[C@H](Oc2cccnc2C2CCN(C(=O)[C@@H](Cc3ccc(Cl)cc3Cl)NC(=O)N3CCCC3)CC2)C1 [Example 21]", "Assay Result": "≥ 7.00"}
{"Compound": "CC[C@H](COc1cccnc1C1CCN(C(=O)[C@@H](Cc2ccc(Cl)cc2Cl)NC(=O)N2CCC(O)(C(F)(F)F)C2)CC1)N(C)C (stereo partly drawn) [Example 128]", "Assay Result": "≥ 7.00"}
{"Compound": "Cc1ccc(C2CCN(C(=O)[C@@H](Cc3ccc(Cl)cc3Cl)NC(=O)N3CCCC3)CC2)c(N2CCN(C)CC2)n1 [Example 4]", "Assay Result": "≥ 7.00"}
